Source listed as PubChem BioAssay (NCI).

Tested on: DU-145 prostate
Test: NCI-60 one-dose screen, 48 h (100 = growth as untreated, 0 = no growth, -100 = all killed)
Conditions: 10 µM unless noted
Procedure: Cells are grown in 96 well plates and exposed to the test compound for 48 hours. Compounds are tested at a single concentration, which is 10^-5 M for most compounds. The reported endpoint is percent growth (GI% or GIPRCNT), where numbers from 0 - 100% represent growth inhibition, and numbers from -100% - 0 represent cell death. For example, a value of 40 represents 60% growth inhibition. A value of 0 means no net growth occurred over the course of the experiment. […]
About 83,000 compounds went through this panel and 20% of them were active in at least one assay; those are over-represented in the sample as a whole.
So basically: growth at 10% or higher? That is 1 (yes). Lower than 10%? That is 0 (no).

Qu. Quick check, growth >= 10%? CN(C)CCCNc1c2ccc(Cl)cc2nc2c1oc1ccc(Cl)cc12
Ans. 0 (no)

Qu. Quick check, growth >= 10%? Cn1ccnc1C(=O)/C=C/c1ccc(NC(=O)Nc2ccccc2)cc1
Ans. 0 (no)

Qu. Quick check, growth >= 10%? CN(C)CCCOc1c2ccccc2nc2c1oc1ccc(Cl)cc12
Ans. 0 (no)

Qu. Quick check, growth >= 10%? COc1cc(/C=C/C(=O)c2cc(OC)c(OC)c(OC)c2)ccc1Oc1nc(NCCO)nc(N2CCOCC2)n1
Ans. 1 (yes)

Qu. Quick check, growth >= 10%? Nc1c(C(=O)c2ccc(Br)cc2)oc2nc(-c3cnccn3)cc(-c3cccs3)c12
Ans. 1 (yes)

Qu. Quick check, growth >= 10%? OC1CCN(CCCOc2c3ccccc3nc3c2oc2ccc(Cl)cc23)CC1
Ans. 0 (no)

Qu. Quick check, growth >= 10%? Nc1cc(-c2c[nH]c3ccc(Cl)cc23)nc2cc(-c3c[nH]c4ccc(Cl)cc34)nn12
Ans. 1 (yes)

Qu. Quick check, growth >= 10%? Cn1c(SCC(=O)c2cccs2)nc2ccccc2c1=O
Ans. 1 (yes)

Qu. Quick check, growth >= 10%? CN(C)S(=O)(=O)c1oc(-c2ccccc2)nc1C#N
Ans. 1 (yes)

Qu. Quick check, growth >= 10%? OC1CCN(CCCOc2c3ccc(Cl)cc3nc3c2oc2ccccc23)CC1
Ans. 0 (no)

---

test system: PC-3 prostate; test: NCI-60 one-dose screen, 48 h (100 = growth as untreated, 0 = no growth, -100 = all killed); details: 10 µM unless noted
Compounds without any hit were thinned out: in the full panel of roughly 83,000, 20% have a hit.
Lab note - cut at 80% for growth: fulfilled if strictly below, not fulfilled if not.

Qu. Here's an entry: O=c1[nH]c2ccccc2cc1CSc1ccccc1Nc1nccc(-c2ccc(C(F)(F)F)cc2)n1 . Is its growth below 80%?
Ans. fulfilled

Qu. Here's an entry: Nc1nc(N)c2c(n1)NC(c1ccc(C(F)(F)F)cc1)CC(c1ccc(Nc3nc(NCCO)nc(Nc4ccc(Cl)cc4)n3)cc1)=N2 (stereo unspecified) . Is its growth below 80%?
Ans. fulfilled

Qu. Here's an entry: C#C[C@]1(O)CC[C@H]2[C@@H]3CC=C4c5sc(Nc6ccc(Cl)cn6)nc5CC[C@]4(C)[C@H]3CC[C@@]21C . Is its growth below 80%?
Ans. fulfilled

Qu. Here's an entry: CN(C)CCCOc1c2ccc(Cl)cc2nc2c1oc1ccc(Cl)cc12 . Is its growth below 80%?
Ans. fulfilled

Qu. Here's an entry: N#Cc1c(-c2ccc(Cl)cc2)nc(SCc2ccc([N+](=O)[O-])cc2)nc1N1CCNCC1 . Is its growth below 80%?
Ans. fulfilled

Qu. Here's an entry: CC(=O)Oc1ccccc1C(=O)Nc1cc(C(C)C)ccc1C . Is its growth below 80%?
Ans. fulfilled

Qu. Here's an entry: O=C(N/N=C/c1ccc[nH]1)c1[nH]c2ccc(Br)cc2c1-c1ccccc1 . Is its growth below 80%?
Ans. fulfilled

Qu. Here's an entry: Fc1ccc(-c2cc3nc(C(Cl)Cl)nc(-c4ccc(Cl)cc4)n3n2)cc1 . Is its growth below 80%?
Ans. fulfilled

Qu. Here's an entry: N/C(=N\c1nc2c(Cl)cc(Cl)cc2s1)C(Cl)(Cl)Cl . Is its growth below 80%?
Ans. fulfilled

Qu. Here's an entry: CC(C)Sc1nc(Nc2ccc(S(N)(=O)=O)cc2)c(C#N)c(-c2ccc(F)cc2)n1 . Is its growth below 80%?
Ans. fulfilled

Qu. Here's an entry: N/C(=N\c1nc2c(Br)cccc2s1)C(Br)Br . Is its growth below 80%?
Ans. fulfilled

Qu. Here's an entry: COc1ccc(-c2csc(N/N=C/c3c(-c4ccc(S(C)(=O)=O)cc4)nc4ccccn34)n2)cc1 . Is its growth below 80%?
Ans. not fulfilled

Qu. Here's an entry: COC(=O)c1ccc(NC(=S)N2CCc3ccc([N+](=O)[O-])cc3C2)cc1O . Is its growth below 80%?
Ans. not fulfilled

Qu. Here's an entry: Cc1sc2c(c1C)c(=O)nc1c(-c3nc(-c4ccc(F)cc4)no3)n[nH]n12 . Is its growth below 80%?
Ans. not fulfilled

Qu. Here's an entry: O=C(CSc1nc2sc3c(c2c(=O)n1-c1ccc(Cl)cc1)CCCC3)NNC(=O)Nc1ccc(Cl)c(C(F)(F)F)c1 . Is its growth below 80%?
Ans. fulfilled

Qu. Here's an entry: Nc1c(C(=O)Nc2ccc(Cl)cc2)sc2nc(-c3cnccn3)cc(-c3cccs3)c12 . Is its growth below 80%?
Ans. fulfilled

Qu. Here's an entry: O=C1c2c(c3c4cc(Br)ccc4[nH]c3c3ccc4ccccc4c23)C(=O)N1CCO . Is its growth below 80%?
Ans. not fulfilled

Qu. Here's an entry: CCN1CCN(/C(=N\c2sc(-c3ccccc3)nc2-c2ccccc2)c2ccccc2)CC1 . Is its growth below 80%?
Ans. fulfilled

Qu. Here's an entry: Cc1ccc2c(n1)C(=O)C(Cl)=C(Nc1cccc(C(C)C)c1)C2=O . Is its growth below 80%?
Ans. fulfilled

Qu. Here's an entry: CCOC(=O)c1sc(NCC(=O)Nc2cccc([N+](=O)[O-])c2)c(C(=O)OCC)c1C . Is its growth below 80%?
Ans. fulfilled

Qu. Here's an entry: COc1cc(OC)c(C2C(Cl)C(=O)N2Nc2ncnc3ccccc23)cc1OC (stereo unspecified) . Is its growth below 80%?
Ans. not fulfilled

Qu. Here's an entry: COc1ccc(-c2cc(C(=O)N=Nc3c(O)[nH]c4ccccc34)c3ccccc3n2)cc1OC . Is its growth below 80%?
Ans. not fulfilled

Qu. Here's an entry: O=C(CCCN1C(=O)/C(=C/c2ccccc2F)SC1=S)N1CCOCC1 . Is its growth below 80%?
Ans. not fulfilled

Qu. Here's an entry: O=C1C2=C(C(=O)c3c(O)cccc31)C(c1ccco1)c1sc(=O)[nH]c1S2 (stereo unspecified) . Is its growth below 80%?
Ans. fulfilled

Qu. Here's an entry: O=C(CCN1C(=O)/C(=C/c2ccccc2F)SC1=S)N1CCOCC1 . Is its growth below 80%?
Ans. not fulfilled

Qu. Here's an entry: Cc1nc(-c2cc3ccccc3oc2=O)ccc1C(=O)/C=C/c1ccccn1 . Is its growth below 80%?
Ans. fulfilled

Qu. Here's an entry: CC(O)C(NC(=O)C1CCCN1C(=O)CNC(=O)C1CC(=O)NCC(=O)NC(Cc2c[nH]c3ccccc23)C(=O)NC(Cc2ccc(O)cc2)C(=O)NCC(=O)NC(CO)C(=O)NC(CCC(N)=O)C(=O)NC(Cc2c[nH]c3ccccc23)C(=O)N1)C(=O)NCC(=O)NC(CCC(N)=O)C(=O)NC(CCCNC(=N)N)C(=O)NC(CC(=O)O)C(=O)O (stereo unspecified) . Is its growth below 80%?
Ans. fulfilled

Qu. Here's an entry: CCOC(=O)c1csc(NC(=O)CSc2nc3sc4c(c3c(=O)n2-c2ccc(Cl)cc2)CCCC4)n1 . Is its growth below 80%?
Ans. not fulfilled

Qu. Here's an entry: COC(=O)C(Cc1ccccc1)NS(=O)(=O)/N=C1\NC(=O)NC1=C(Cl)Cl (stereo unspecified) . Is its growth below 80%?
Ans. not fulfilled

Qu. Here's an entry: N[C@@H](Cc1cn(-c2c3ccccc3nc3ccccc23)nn1)C(=O)O . Is its growth below 80%?
Ans. not fulfilled

Qu. Here's an entry: Nc1cc(-c2c[nH]c3ccc(Cl)cc23)nc2cc(-c3c[nH]c4ccc(Cl)cc34)nn12 . Is its growth below 80%?
Ans. fulfilled

Qu. Here's an entry: COC(=O)C(C)NS(=O)(=O)/N=C1\NC(=O)NC1=C(Cl)Cl (stereo unspecified) . Is its growth below 80%?
Ans. not fulfilled

Qu. Here's an entry: Clc1ccc2oc3c(NCCCN4CCOCC4)c4ccccc4nc3c2c1 . Is its growth below 80%?
Ans. fulfilled

Qu. Here's an entry: Cc1ccc(C(=O)Nc2cccc(C(F)(F)F)c2)cc1Nc1nc(-c2cnccn2)nc2c1cnn2C . Is its growth below 80%?
Ans. not fulfilled

Qu. Here's an entry: CC(C)NC(=O)c1cc(-c2ccc(NC(=O)Nc3ccc(N4CCOCC4)c(C(F)(F)F)c3)cc2)nc2cccnc12 . Is its growth below 80%?
Ans. fulfilled
